Assay: PK of compound of Formula (Ia) after single subcutaneous dose of solution formulations in beagle dogs
Assay type: in vivo
Conditions: male, beagle, dog, plasma, sc, 12 mg/kg, 336 h; individual dogs; SC 12 mg/kg; solution T, 400 mg/mL
assayEndpoint: concentration at 336 h (nM)
Kindly answer with a numeric value in nM, unit omitted.

Form field concentration at 336 h, entry CC(C)(C#Cc1ccc(-c2ccc(Cl)c3c(NS(C)(=O)=O)nn(CC(F)(F)F)c23)c([C@H](Cc2cc(F)cc(F)c2)NC(=O)Cn2nc(C(F)(F)F)c3c2C(F)(F)[C@@H]2C[C@H]32)n1)S(C)(=O)=O [compound of Formula (Ia)] : 179

###

Assay: PK of compound of Formula (Ia) after single subcutaneous dose of solution formulations in Wistar Han rats
Format: in vivo
Details: male, Wistar Han, rat, plasma, sc, 50 mg/kg, mean ± SD, n = 5 rats; SC 50 mg/kg; solution U, 500 mg/mL; read-out: AUC0-6720 h
assayEndpoint: AUC(0-t)

Form field AUC(0-t), entry `CC(C)(C#Cc1ccc(-c2ccc(Cl)c3c(NS(C)(=O)=O)nn(CC(F)(F)F)c23)c([C@H](Cc2cc(F)cc(F)c2)NC(=O)Cn2nc(C(F)(F)F)c3c2C(F)(F)[C@@H]2C[C@H]32)n1)S(C)(=O)=O` : 802 µM·h

###

Experiment: PK of compound of Formula (Ia) after single subcutaneous dose of solution formulations in beagle dogs
Assay type: in vivo
Conditions: male, beagle, dog, plasma, sc, 12 mg/kg, mean ± SD, n = 3 dogs; SC 12 mg/kg; solution W, 400 mg/mL; read-out: AUC0-2253 h
assayEndpoint: AUC(0-t)
Units required after the number.

Form field AUC(0-t), entry CC(C)(C#Cc1ccc(-c2ccc(Cl)c3c(NS(C)(=O)=O)nn(CC(F)(F)F)c23)c([C@H](Cc2cc(F)cc(F)c2)NC(=O)Cn2nc(C(F)(F)F)c3c2C(F)(F)[C@@H]2C[C@H]32)n1)S(C)(=O)=O [compound of Formula (Ia)] : 164 µM·h

###

Assay: PK of compound of Formula (Ia) after single subcutaneous dose of solution formulations in beagle dogs
Assay type: in vivo
Details: male, beagle, dog, plasma, sc, 12 mg/kg, beagle dogs, SC 12 mg/kg, 400 mg/mL solution Y (water, PEG 300), 2352 h, Mean n = 3
assayEndpoint: concentration at 2352 h (nM)
Kindly answer with a numeric value in nM, unit omitted.

Form field concentration at 2352 h, entry CC(C)(C#Cc1ccc(-c2ccc(Cl)c3c(NS(C)(=O)=O)nn(CC(F)(F)F)c23)c([C@H](Cc2cc(F)cc(F)c2)NC(=O)Cn2nc(C(F)(F)F)c3c2C(F)(F)[C@@H]2C[C@H]32)n1)S(C)(=O)=O [compound of Formula (Ia)] : 15.4

###

Test: PK of compound of Formula (Ia) after single subcutaneous dose of solution formulations in Wistar Han rats
Type: in vivo
Details: male, Wistar Han, rat, plasma, sc, 50 mg/kg, 1.00 h; individual rats; SC 50 mg/kg; solution V, 300 mg/mL
assayEndpoint: concentration at 1 h (nM)
Kindly answer with a numeric value in nM, unit omitted.

Form field concentration at 1 h, entry `CC(C)(C#Cc1ccc(-c2ccc(Cl)c3c(NS(C)(=O)=O)nn(CC(F)(F)F)c23)c([C@H](Cc2cc(F)cc(F)c2)NC(=O)Cn2nc(C(F)(F)F)c3c2C(F)(F)[C@@H]2C[C@H]32)n1)S(C)(=O)=O` : 51.4

###

Test: PK of compound of Formula (Ia) after single subcutaneous dose of solution formulations in beagle dogs
Type: in vivo
Conditions: male, beagle, dog, plasma, sc, 6 mg/kg, mean ± SD, n = 3 dogs; SC 6 mg/kg; solution V, 300 mg/mL
assayEndpoint: Tmax (days)
Kindly answer with a numeric value in days, unit omitted.

Form field Tmax, entry `CC(C)(C#Cc1ccc(-c2ccc(Cl)c3c(NS(C)(=O)=O)nn(CC(F)(F)F)c23)c([C@H](Cc2cc(F)cc(F)c2)NC(=O)Cn2nc(C(F)(F)F)c3c2C(F)(F)[C@@H]2C[C@H]32)n1)S(C)(=O)=O` : 18.7

###

Assay: PK of compound of Formula (Ia) after single subcutaneous dose of solution formulations in Wistar Han rats
Format: in vivo
Settings: male, Wistar Han, rat, plasma, sc, 50 mg/kg, 1680 h; individual rats; SC 50 mg/kg; solution S, 500 mg/mL
assayEndpoint: concentration at 1680 h (nM)
Kindly answer with a numeric value in nM, unit omitted.

Form field concentration at 1680 h, entry `CC(C)(C#Cc1ccc(-c2ccc(Cl)c3c(NS(C)(=O)=O)nn(CC(F)(F)F)c23)c([C@H](Cc2cc(F)cc(F)c2)NC(=O)Cn2nc(C(F)(F)F)c3c2C(F)(F)[C@@H]2C[C@H]32)n1)S(C)(=O)=O` : 342

###

Assay: PK of compound of Formula (Ia) after single subcutaneous dose of solution formulations in Wistar Han rats
Assay type: in vivo
Details: male, Wistar Han, rat, plasma, sc, 50 mg/kg, 4032 h; mean, n = 3 rats; SC 50 mg/kg; solution R, 400 mg/mL
assayEndpoint: concentration at 4032 h (nM)
Kindly answer with a numeric value in nM, unit omitted.

Form field concentration at 4032 h, entry CC(C)(C#Cc1ccc(-c2ccc(Cl)c3c(NS(C)(=O)=O)nn(CC(F)(F)F)c23)c([C@H](Cc2cc(F)cc(F)c2)NC(=O)Cn2nc(C(F)(F)F)c3c2C(F)(F)[C@@H]2C[C@H]32)n1)S(C)(=O)=O [compound of Formula (Ia)] : 102

###

Assay: PK of compound of Formula (Ia) after single subcutaneous dose of solution formulations in Wistar Han rats
Assay type: in vivo
Conditions: male, Wistar Han, rat, plasma, sc, 50 mg/kg, male Wistar Han rats, single SC 50 mg/kg, 400 mg/mL solution AA (6.25% poloxamer 188), mean ± SD, n = 4; read-out: AUC0-2352 h
assayEndpoint: AUC(0-t) (µM·h)
Kindly answer with a numeric value in µM·h, unit omitted.

Form field AUC(0-t), entry CC(C)(C#Cc1ccc(-c2ccc(Cl)c3c(NS(C)(=O)=O)nn(CC(F)(F)F)c23)c([C@H](Cc2cc(F)cc(F)c2)NC(=O)Cn2nc(C(F)(F)F)c3c2C(F)(F)[C@@H]2C[C@H]32)n1)S(C)(=O)=O [compound of Formula (Ia)] : 190

###

Test: PK of compound of Formula (Ia) after single subcutaneous dose of solution formulations in beagle dogs
Assay type: in vivo
Details: male, beagle, dog, plasma, sc, 12 mg/kg, beagle dogs, SC 12 mg/kg, 400 mg/mL solution Y (water, PEG 300), 8.00 h, Mean n = 3
assayEndpoint: concentration at 8 h (nM)
Kindly answer with a numeric value in nM, unit omitted.

Form field concentration at 8 h, entry CC(C)(C#Cc1ccc(-c2ccc(Cl)c3c(NS(C)(=O)=O)nn(CC(F)(F)F)c23)c([C@H](Cc2cc(F)cc(F)c2)NC(=O)Cn2nc(C(F)(F)F)c3c2C(F)(F)[C@@H]2C[C@H]32)n1)S(C)(=O)=O [compound of Formula (Ia)] : 33.9

###

Assay: PK of compound of Formula (Ia) after single subcutaneous dose of solution formulations in beagle dogs
Type: in vivo
Details: male, beagle, dog, plasma, sc, 6 mg/kg, 504 h; mean, n = 3 dogs; SC 6 mg/kg; solution V, 300 mg/mL
assayEndpoint: concentration at 504 h (nM)
Kindly answer with a numeric value in nM, unit omitted.

Form field concentration at 504 h, entry CC(C)(C#Cc1ccc(-c2ccc(Cl)c3c(NS(C)(=O)=O)nn(CC(F)(F)F)c23)c([C@H](Cc2cc(F)cc(F)c2)NC(=O)Cn2nc(C(F)(F)F)c3c2C(F)(F)[C@@H]2C[C@H]32)n1)S(C)(=O)=O [compound of Formula (Ia)] : 151

###

Test: PK of compound of Formula (Ia) after single intramuscular dose of solution formulations in Wistar Han rats
Type: in vivo
Conditions: male, Wistar Han, rat, plasma, intramuscular, 100 mg/kg, 96.0 h; individual rats; IM 100 mg/kg; solution M, 500 mg/mL; read-out: Plasma concentration
assayEndpoint: concentration at 96 h (µM)
Kindly answer with a numeric value in µM, unit omitted.

Form field concentration at 96 h, entry `CC(C)(C#Cc1ccc(-c2ccc(Cl)c3c(NS(C)(=O)=O)nn(CC(F)(F)F)c23)c([C@H](Cc2cc(F)cc(F)c2)NC(=O)Cn2nc(C(F)(F)F)c3c2C(F)(F)[C@@H]2C[C@H]32)n1)S(C)(=O)=O` : 0.593

###

Assay: PK of compound of Formula (Ia) after single subcutaneous dose of solution formulations in Wistar Han rats
Type: in vivo
Conditions: male, Wistar Han, rat, plasma, sc, 50 mg/kg, Wistar Han rats, SC 50 mg/kg, 400 mg/mL solution AA (6.25% poloxamer 188), 96.0 h, animals #1-#4
assayEndpoint: concentration at 96 h (nM)
Kindly answer with a numeric value in nM, unit omitted.

Form field concentration at 96 h, entry `CC(C)(C#Cc1ccc(-c2ccc(Cl)c3c(NS(C)(=O)=O)nn(CC(F)(F)F)c23)c([C@H](Cc2cc(F)cc(F)c2)NC(=O)Cn2nc(C(F)(F)F)c3c2C(F)(F)[C@@H]2C[C@H]32)n1)S(C)(=O)=O` : 211
